Test system: TNF-α
methodDescription: TNF-α production in LPS-stimulated human whole blood (ELISA)
Type: cell-based
measurementConditions: 1 μM, LPS 4 hours, read-out: % TNF-α Inhibitory Activity in (hPBMC)
Listed below: inhibition at 1 µM values for each entry.
measurementLabel: inhibition at 1 µM

compound="Cc1nccn1CC1CCc2c(c3ccccc3n2C)/C1=N/OCc1ccc([N+](=O)[O-])cc1 (stereo not drawn) [Example 15]" obsvalue=48.1%
compound="CCO/N=C1/c2c(n(C)c3ccccc23)CCC1Cn1ccnc1C (stereo not drawn) [Example 3]" obsvalue=3.42%
compound="Cc1nccn1CC1CCc2c(c3ccccc3n2C)/C1=N/OCC(F)(F)F (stereo not drawn) [Example 4]" obsvalue=19.8%
compound="Cc1nccn1CC1CCc2c(c3ccccc3n2C)/C1=N/OC(=O)c1ccc(Cl)cc1 (stereo not drawn) [Example 31]" obsvalue=10.8%
compound="Cc1nccn1CC1CCc2c(c3ccccc3n2C)/C1=N/OCc1ccncc1 (stereo not drawn) [Example 11]" obsvalue=11.7%
compound="Cc1ccc(C(=O)O/N=C2/c3c(n(C)c4ccccc34)CCC2Cn2ccnc2C)cc1 (stereo not drawn) [Example 36]" obsvalue=8.81%
compound="Cc1nccn1CC1CCc2c(c3ccccc3n2C)/C1=N/OC(=O)c1ccccc1Br (stereo not drawn) [Example 39]" obsvalue=26.1%
compound="COc1ccc(CO/N=C2/c3c(n(C)c4ccccc34)CCC2Cn2ccnc2C)cc1 (stereo not drawn) [Example 5]" obsvalue=18.4%
compound="Cc1nccn1CC1CCc2c(c3ccccc3n2C)/C1=N/OCc1ccccc1 (stereo not drawn) [Example 2]" obsvalue=6.87%
